test system: CAKI-1; experiment: NCI tumour cell line growth inhibition, 48 h
Active and inactive are the calls of the source. Rule as the data show it: active = GI50 up to about 1.1 µM and inactive = higher.
Returns: one label drawn from True = active, False = inactive

Data request: Lab log entry: "COc1cc2c(/C=C3/C(=O)Nc4ccccc43)c(Cl)[nH]c2cc1C" — outcome as called in the assay?
Data returned: True

Data request: Lab log entry: "CC[C@H](NC1=C(Cl)C(=O)c2c(O)ccc(O)c2C1=O)C(=O)OC" — outcome as called in the assay?
Data returned: False

Data request: Lab log entry: COc1cc(C2C(C(=O)O)=C(CO)Oc3cc4c(cc32)OCO4)cc(OC)c1OC (stereo not drawn) — outcome as called in the assay?
Data returned: False

Continuing:
Data request: Lab log entry: CC(C)C1SCc2nc3ccccc3n21 (stereo not drawn) — outcome as called in the assay?
Data returned: False

Data request: Lab log entry: CN(C)c1c(C2OC(CO)C(O)C2O)c(=O)c1=O (stereo not drawn) — outcome as called in the assay?
Data returned: False

Data request: Lab log entry: "O=C(O)c1cc2ccccc2c(S(=O)(=O)O)c1O" — outcome as called in the assay?
Data returned: False

Data request: Lab log entry: "CCOC(=O)c1c2c(n(-c3ccc(C)cc3)c1C)-c1ccccc1C(=O)C2(C(=O)OCC)C(=O)OCC" — outcome as called in the assay?
Data returned: False

Data request: Lab log entry: "NC(=O)c1cc(N2CC2)c([N+](=O)[O-])cc1[N+](=O)[O-]" — outcome as called in the assay?
Data returned: False

Data request: Lab log entry: C=CCN(N=O)C(=O)N(CCC)CCCC(NC(C)=O)C(=O)NCc1ccccc1 (stereo not drawn) — outcome as called in the assay?
Data returned: False

Data request: Lab log entry: "Cc1cccc(Nc2cn(CCOc3ccccc3)c(=O)[nH]c2=O)c1" — outcome as called in the assay?
Data returned: False

Data request: Lab log entry: "c1cc2nnc1SCCSCCSc1ccc(nn1)SCCSCCS2" — outcome as called in the assay?
Data returned: False

Data request: Lab log entry: "COc1ccc(CC(=O)c2cc(OC)c(OC)cc2C)cc1OC" — outcome as called in the assay?
Data returned: False

Data request: Lab log entry: OC(/C(=N/c1ccccc1)c1ccccc1)c1ccccc1 (stereo not drawn) — outcome as called in the assay?
Data returned: False

Data request: Lab log entry: "O=C(/C=C\Nc1ccccc1O)C(F)(F)F" — outcome as called in the assay?
Data returned: False

Data request: Lab log entry: "COc1ccccc1NC(=S)N/N=C/c1cccc(C)n1" — outcome as called in the assay?
Data returned: False

Data request: Lab log entry: CCCCCC(O)C(O)CCC[C@H](O)[C@H]1CC[C@H]([C@H]2CC[C@H]([C@H](O)CCCCCCCCCCCCC3=C[C@H](C)OC3=O)O2)O1 (stereo partly drawn) — outcome as called in the assay?
Data returned: False

Data request: Lab log entry: C=C1C(=O)OC2C1CC(OC(C)=O)/C(C)=C/CCC1(C)OC21 (stereo not drawn) — outcome as called in the assay?
Data returned: False

Data request: Lab log entry: COc1cc(OC)c2c(c1-c1ccc(C)cc1)CC(C)N(Cc1ccccc1)[C@H]2C (stereo partly drawn) — outcome as called in the assay?
Data returned: False

Data request: Lab log entry: Nc1nc2c(ncn2C2OC(CO)C(O)C2N)c(=O)[nH]1 (stereo not drawn) — outcome as called in the assay?
Data returned: False

Data request: Lab log entry: CCC(C)C(N)C(=O)N/N=C\c1c2c(nc3ccccc13)-c1cc3c(c(=O)n1C2)COC(=O)[C@]3(O)CC (stereo partly drawn) — outcome as called in the assay?
Data returned: True

Data request: Lab log entry: "O=C1CCC(=O)N1Sc1ccccc1" — outcome as called in the assay?
Data returned: False

Data request: Lab log entry: NC(=O)NCCCC(NC(=O)OCCCCn1ccc(=O)[nH]c1=O)C(=O)O (stereo not drawn) — outcome as called in the assay?
Data returned: False

Data request: Lab log entry: "Cn1c2ccccc2c2[nH]c3ccccc3c(=O)c21" — outcome as called in the assay?
Data returned: False

Data request: Lab log entry: "Nc1c(C(=O)c2ccc(Cl)cc2)[nH]c(NCc2ccccc2)c1C(=S)Nc1ccccc1" — outcome as called in the assay?
Data returned: False

Data request: Lab log entry: "O=C(c1ccccc1)n1cc(-c2ccccc2)c2c(=O)nc[nH]c21" — outcome as called in the assay?
Data returned: False

All values here come from ChEMBL document CHEMBL1201862.
